The entries below are paired with their reported enrichment score.
- Subject Of Test: biotinylated His-Avi-TEAD (194-411) (UniProt P28347)
- Protocol: SSM screen, enrichment after two rounds of sorting
Test Readout: enrichment score

> print(dat)
                                      binder      test.readout  obs.value
 1  GSPDEYIPRAKECCKKGDIQCCLRYFEESGDPNVMLICLFCP (designed binder) [E06P variant of SEQ ID NO: 1]  enrichment score      -2.84
 2  GSPDEYIERAKECCKKKDIQCCLRYFEESGDPNVMLICLFCP (designed binder) [G15K variant of SEQ ID NO: 1]  enrichment score       4.43
 3  GSPDMYIERAKECCKKGDIQCCLRYFEESGDPNVMLICLFCP (designed binder) [E03M variant of SEQ ID NO: 1]  enrichment score       2.57
 4  GSHDEYIERAKECCKKGDIQCCLRYFEESGDPNVMLICLFCP (designed binder) [P01H variant of SEQ ID NO: 1]  enrichment score      -0.88
 5  GSPDEYIEMAKECCKKGDIQCCLRYFEESGDPNVMLICLFCP (designed binder) [R07M variant of SEQ ID NO: 1]  enrichment score      -1.06
 6  GSPDEYIEWAKECCKKGDIQCCLRYFEESGDPNVMLICLFCP (designed binder) [R07W variant of SEQ ID NO: 1]  enrichment score      -1.28
 7  GSDDEYIERAKECCKKGDIQCCLRYFEESGDPNVMLICLFCP (designed binder) [P01D variant of SEQ ID NO: 1]  enrichment score      -0.65
 8  GSPDEYIERAKECCKKGIIQCCLRYFEESGDPNVMLICLFCP (designed binder) [D16I variant of SEQ ID NO: 1]  enrichment score      -6.42
 9  GSPDRYIERAKECCKKGDIQCCLRYFEESGDPNVMLICLFCP (designed binder) [E03R variant of SEQ ID NO: 1]  enrichment score      -1.81
10  GSPDEYIERANECCKKGDIQCCLRYFEESGDPNVMLICLFCP (designed binder) [K09N variant of SEQ ID NO: 1]  enrichment score       3.31
11  GSGDEYIERAKECCKKGDIQCCLRYFEESGDPNVMLICLFCP (designed binder) [P01G variant of SEQ ID NO: 1]  enrichment score        1.7
12  GSMDEYIERAKECCKKGDIQCCLRYFEESGDPNVMLICLFCP (designed binder) [P01M variant of SEQ ID NO: 1]  enrichment score      -1.02
